B1: DVL3 (parent)
chain: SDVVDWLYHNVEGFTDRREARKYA

Variants of: B1
Test: protein stability index of a GFP-peptide fusion (GPS, HEK-293T) (PSI 1-6); higher = more stable;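 further: lentivirally expressed fusions sorted by FACS into six bins by GFP to DsRed ratio, PSI derived from sequencing read proportions per bin multiplied by bin number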
Settings: c terminus: a fixed tail appended
Exercise: state measured protein stability index for each of the variants provided.

Mutant	protein stability index
V3Y	3
G13T	2.93
R18P	3.03
E19W	1.82
R21L	3.1
D2V	2.72
K22L	2.19
V11W	2.36

Required: protein stability index, one value per variant below.
1. G13W
2. G13V

-- reply
1: 2.52; 2: 2.14
